In this section we review reported CLhep predicted at 2 µM values for a set of compounds.
- assayOverview: Clearance in cynomolgus monkey hepatic microsomes at 2 uM measured up to 60 mins in presence of NADPH generating system by LC-MS/MS analysis
- Assay type: ADME, Macaca fascicularis, Microsome
- appliedConditions: liver microsomes

{"columns": ["compound", "unitsSymbol", "CLhep predicted at 2 µM"],
 "data": [
  ["CCCC[C@](C)(CO)Nc1nc(N)nc2cccnc12", "mL/min/kg", 21.7],
  ["CCCC[C@](C)(CO)Nc1nc(N)nc2cc(C)cnc12", "mL/min/kg", 25],
  ["CCCC[C@](C)(CO)Nc1nc(N)nc2cc(F)cnc12 [SELGANTOLIMOD]", "mL/min/kg", 25],
  ["CCCC[C@](C)(CO)Nc1nc(N)nc2cc(Cl)cnc12", "mL/min/kg", 23.3],
  ["CCCC[C@@](C)(CO)Nc1nc(N)nc2cccnc12", "mL/min/kg", 23.3]
]}

* * *

- assayOverview: Clearance in dog hepatic microsomes at 2 uM measured up to 60 mins in presence of NADPH generating system by LC-MS/MS analysis
- Type: ADME, Canis lupus familiaris, Microsome
- appliedConditions: liver microsomes
In this section we review reported CLhep predicted at 2 µM values for a set of compounds.

{"columns": ["smilesEntry", "unitsSymbol", "CLhep predicted at 2 µM"],
 "data": [
  ["CCCC[C@](C)(CO)Nc1nc(N)nc2cc(C)cnc12", "mL/min/kg", 18.3],
  ["CCCC[C@](C)(CO)Nc1nc(N)nc2cc(F)cnc12", "mL/min/kg", 28.3],
  ["CCCC[C@@](C)(CO)Nc1nc(N)nc2cccnc12", "mL/min/kg", 25],
  ["CCCC[C@](C)(CO)Nc1nc(N)nc2cccnc12", "mL/min/kg", 23.3],
  ["CCCC[C@](C)(CO)Nc1nc(N)nc2cc(Cl)cnc12", "mL/min/kg", 30]
]}

* * *

- assayOverview: Volume of distribution at steady state in Beagle dog at 0.25 mg/kg, iv administered as 30 mins infusion by HPLC-MS analysis
- Assay type: ADME, organism-based, Canis lupus familiaris
- appliedConditions: in vivo, read-out: Vdss

{"columns": ["smilesEntry", "Vd / L/kg"],
 "data": [
  ["CCCC[C@](C)(CO)Nc1nc(N)nc2cc(F)cnc12", 1.01]
]}

* * *

- assayOverview: Dissociation constant, pKa of the compound
- Assay type: physicochemical
measuredQuantity: pKa

{"columns": ["smilesEntry", "value"],
 "data": [
  ["CCCC[C@H](CO)Nc1nc(N)nc2ccccc12", 8.2],
  ["CCCC[C@](C)(CO)Nc1nc(N)nc2cc(C)cnc12", 7.1],
  ["CCCC[C@](C)(CO)Nc1nc(N)nc2cc(F)cnc12", 6.3],
  ["CCCC[C@H](CO)Nc1nc(N)nc2cccnc12", 6.8],
  ["CCCC[C@](C)(CO)Nc1nc(N)nc2cc(Cl)cnc12", 6.4]
]}

* * *

- assayOverview: AUC (infinity) in Sprague-Dawley rat at 5 mg/kg, po administered via gavage by HPLC-MS analysis
- Assay type: ADME, organism-based
- Set-up: time infinity, route oral, dose 5 mg/kg
- appliedConditions: in vivo

{"columns": ["compound", "AUC(0-inf), nM·h"],
 "data": [
  ["CCCC[C@](C)(CO)Nc1nc(N)nc2cc(F)cnc12 [SELGANTOLIMOD]", 827]
]}

* * *

- targetOrSystem: UniProt Q9NYK1
- Sequence (Q9NYK1 whole entry): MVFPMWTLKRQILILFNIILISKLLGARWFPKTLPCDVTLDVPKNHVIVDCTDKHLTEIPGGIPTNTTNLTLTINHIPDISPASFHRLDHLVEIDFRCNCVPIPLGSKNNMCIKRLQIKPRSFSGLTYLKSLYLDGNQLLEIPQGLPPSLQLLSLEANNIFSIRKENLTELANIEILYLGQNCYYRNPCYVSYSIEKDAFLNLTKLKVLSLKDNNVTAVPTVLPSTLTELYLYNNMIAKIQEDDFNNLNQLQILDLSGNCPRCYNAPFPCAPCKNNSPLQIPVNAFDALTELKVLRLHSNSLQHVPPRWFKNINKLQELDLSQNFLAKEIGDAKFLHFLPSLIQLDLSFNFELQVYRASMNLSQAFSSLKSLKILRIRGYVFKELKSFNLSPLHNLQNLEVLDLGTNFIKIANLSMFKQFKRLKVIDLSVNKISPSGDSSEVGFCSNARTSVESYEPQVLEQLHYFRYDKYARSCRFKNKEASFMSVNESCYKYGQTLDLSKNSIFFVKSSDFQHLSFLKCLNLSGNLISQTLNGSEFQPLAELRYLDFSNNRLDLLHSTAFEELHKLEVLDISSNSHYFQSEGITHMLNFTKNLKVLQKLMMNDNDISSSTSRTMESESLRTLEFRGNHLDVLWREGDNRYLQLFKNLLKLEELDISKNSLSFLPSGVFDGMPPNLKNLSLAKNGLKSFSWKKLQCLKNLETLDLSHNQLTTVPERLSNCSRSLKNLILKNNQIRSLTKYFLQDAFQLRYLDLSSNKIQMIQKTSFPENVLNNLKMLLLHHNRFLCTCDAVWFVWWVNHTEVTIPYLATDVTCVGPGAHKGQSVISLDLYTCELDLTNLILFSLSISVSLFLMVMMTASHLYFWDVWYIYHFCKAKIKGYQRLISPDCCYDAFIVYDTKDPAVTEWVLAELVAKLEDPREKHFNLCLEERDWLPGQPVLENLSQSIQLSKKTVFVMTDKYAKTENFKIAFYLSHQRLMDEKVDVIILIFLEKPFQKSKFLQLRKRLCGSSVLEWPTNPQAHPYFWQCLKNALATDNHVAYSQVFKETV
- assayOverview: Agonist activity at TLR7 in human cryopreserved PBMC assessed as induction of IFNalpha production measured after 24 hrs
measuredQuantity: EC50

{"columns": ["smilesEntry", "targetOrSystem", "measuredQuantity", "value"],
 "data": [
  ["CCCC[C@](C)(CO)Nc1nc(N)nc2cc(Cl)cnc12", "UniProt Q9NYK1", "EC50", "> 42 µM"],
  ["CCCC[C@H](CO)Nc1cc(N)nc2ccccc12", "UniProt Q9NYK1", "EC50", "> 50 µM"],
  ["CCCC[C@@H](Nc1nc(N)nc2cccnc12)C(=O)O", "UniProt Q9NYK1", "EC50", "> 50 µM"],
  ["CCCC[C@@](C)(CO)Nc1nc(N)nc2cc(F)cnc12", "UniProt Q9NYK1", "EC50", "> 50 µM"],
  ["CCCC[C@@](C)(Nc1nc(N)nc2cc(F)cnc12)C(=O)O", "UniProt Q9NYK1", "EC50", "> 50 µM"],
  ["CCCCOc1nc(N)nc2cccnc12", "UniProt Q9NYK1", "EC50", "> 50 µM"],
  ["CCCC[C@@H](CO)Nc1nc(N)nc2cccnc12", "UniProt Q9NYK1", "EC50", "0.91 µM"]
]}

* * *

- assayOverview: Half life in Sprague-Dawley rat at 1 mg/kg, iv administered as 30 mins infusion by HPLC-MS analysis
- Type: ADME, organism-based
- appliedConditions: in vivo
measuredQuantity: half-life (h)

{"columns": ["compound", "unitsSymbol", "value"],
 "data": [
  ["CCCC[C@](C)(CO)Nc1nc(N)nc2cc(F)cnc12 [SELGANTOLIMOD]", "h", 1.45]
]}

* * *

- assayOverview: Clearance in Sprague-Dawley rat at 1 mg/kg, iv administered as 30 mins infusion by HPLC-MS analysis
- Format: ADME, organism-based
- appliedConditions: in vivo

{"columns": ["smilesEntry", "clearance"],
 "data": [
  ["CCCC[C@](C)(CO)Nc1nc(N)nc2cc(F)cnc12", "30 mL/min/kg"]
]}

* * *

In this section we review reported CLhep predicted at 2 µM values for a set of molecules.
- assayOverview: Clearance in rat hepatic microsomes at 2 uM measured up to 60 mins in presence of NADPH generating system by LC-MS/MS analysis
- Format: ADME, Microsome
- appliedConditions: liver microsomes
measuredQuantity: CLhep predicted at 2 µM

{"columns": ["smilesEntry", "value"],
 "data": [
  ["CCCC[C@](C)(CO)Nc1nc(N)nc2cccnc12", "58.3 mL/min/kg"],
  ["CCCC[C@@](C)(CO)Nc1nc(N)nc2cccnc12", "58.3 mL/min/kg"],
  ["CCCC[C@](C)(CO)Nc1nc(N)nc2cc(C)cnc12", "63.3 mL/min/kg"],
  ["CCCC[C@](C)(CO)Nc1nc(N)nc2cc(F)cnc12", "50 mL/min/kg"],
  ["CCCC[C@](C)(CO)Nc1nc(N)nc2cc(Cl)cnc12", "56.7 mL/min/kg"]
]}

* * *

In this section we review reported CC50 values for a set of molecules.
- assayOverview: Cytotoxicity against human MT4 cells assessed as reduction in cell viability measured after 4 to 5 days by celltiter-glo assay
- Format: cell-based
- appliedConditions: time 4-5 day

{"columns": ["molecule", "CC50 / µM"],
 "data": [
  ["CCCC[C@](C)(CO)Nc1nc(N)nc2cccnc12", 31],
  ["CCCC[C@](C)(CO)Nc1nc(N)nc2cc(F)cnc12 [SELGANTOLIMOD]", 17],
  ["CCCC[C@](C)(CO)Nc1nc(N)nc2cc(Cl)cnc12", 22]
]}

Where these numbers come from: ChEMBL document CHEMBL4725242
